Origin of values: ChEMBL document CHEMBL3593212

# system-under-test: Tyrosine-protein kinase ITK/TSK (Homo sapiens)
# Sequence (Q08881 whole entry): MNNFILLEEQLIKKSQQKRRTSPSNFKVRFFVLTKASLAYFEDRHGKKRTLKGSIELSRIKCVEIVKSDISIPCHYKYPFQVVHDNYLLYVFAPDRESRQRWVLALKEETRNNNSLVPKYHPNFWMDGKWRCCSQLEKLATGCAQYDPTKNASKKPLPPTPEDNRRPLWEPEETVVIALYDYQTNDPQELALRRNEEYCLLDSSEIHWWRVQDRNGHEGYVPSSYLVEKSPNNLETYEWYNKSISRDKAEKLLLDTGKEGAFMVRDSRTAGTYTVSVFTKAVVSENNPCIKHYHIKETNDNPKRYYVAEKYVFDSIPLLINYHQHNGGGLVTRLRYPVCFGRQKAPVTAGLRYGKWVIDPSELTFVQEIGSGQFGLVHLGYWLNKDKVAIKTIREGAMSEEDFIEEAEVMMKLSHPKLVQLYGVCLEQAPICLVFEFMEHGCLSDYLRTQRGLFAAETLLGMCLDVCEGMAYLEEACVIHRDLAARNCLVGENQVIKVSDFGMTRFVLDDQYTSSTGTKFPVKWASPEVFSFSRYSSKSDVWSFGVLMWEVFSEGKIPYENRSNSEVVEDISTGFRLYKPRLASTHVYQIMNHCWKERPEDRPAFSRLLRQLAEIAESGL
# assay-summary: Inhibition of ITK (unknown origin)
pIC50: −log10 of the molar value.
metric: pIC50

Sure, the documented pIC50 for N#Cc1ccc(N2CC[C@@H](Nc3c(C(N)=O)cnc4[nH]ccc34)[C@@H](F)C2)nc1 is < 6.00

====

# assay-summary: AUC (0 to 24 hrs) in beagle dog at 3 mg/kg, po by LC/MS/MS method
# Format: ADME, organism-based, Canis lupus familiaris
# Parameters: time < 24 hr, dose 3 mg/kg, route oral
# reported-conditions: in vivo
metric: AUC(0-t) at 24 h (ng·h/mL)
Dear colleague, please return just the value in ng·h/mL, with no unit written.

Sure, the documented AUC(0-t) at 24 h for N#Cc1ccc(N2CC[C@@H](Nc3c(C(N)=O)cnc4[nH]ccc34)[C@@H](F)C2)nc1 is 8300

====

# assay-summary: Oral bioavailability in cynomolgus monkey at 3 mg/kg by LC/MS/MS method
# Assay type: ADME, organism-based, Macaca fascicularis
# reported-conditions: in vivo
metric: bioavailability
A complete answer gives the number and then names the unit.

Sure, the documented bioavailability for N#Cc1ccc(N2CC[C@@H](Nc3c(C(N)=O)cnc4[nH]ccc34)[C@@H](F)C2)nc1 is 64.3%

====

# system-under-test: Mitogen-activated protein kinase kinase kinase 9 (Homo sapiens)
# Sequence (P80192 whole entry): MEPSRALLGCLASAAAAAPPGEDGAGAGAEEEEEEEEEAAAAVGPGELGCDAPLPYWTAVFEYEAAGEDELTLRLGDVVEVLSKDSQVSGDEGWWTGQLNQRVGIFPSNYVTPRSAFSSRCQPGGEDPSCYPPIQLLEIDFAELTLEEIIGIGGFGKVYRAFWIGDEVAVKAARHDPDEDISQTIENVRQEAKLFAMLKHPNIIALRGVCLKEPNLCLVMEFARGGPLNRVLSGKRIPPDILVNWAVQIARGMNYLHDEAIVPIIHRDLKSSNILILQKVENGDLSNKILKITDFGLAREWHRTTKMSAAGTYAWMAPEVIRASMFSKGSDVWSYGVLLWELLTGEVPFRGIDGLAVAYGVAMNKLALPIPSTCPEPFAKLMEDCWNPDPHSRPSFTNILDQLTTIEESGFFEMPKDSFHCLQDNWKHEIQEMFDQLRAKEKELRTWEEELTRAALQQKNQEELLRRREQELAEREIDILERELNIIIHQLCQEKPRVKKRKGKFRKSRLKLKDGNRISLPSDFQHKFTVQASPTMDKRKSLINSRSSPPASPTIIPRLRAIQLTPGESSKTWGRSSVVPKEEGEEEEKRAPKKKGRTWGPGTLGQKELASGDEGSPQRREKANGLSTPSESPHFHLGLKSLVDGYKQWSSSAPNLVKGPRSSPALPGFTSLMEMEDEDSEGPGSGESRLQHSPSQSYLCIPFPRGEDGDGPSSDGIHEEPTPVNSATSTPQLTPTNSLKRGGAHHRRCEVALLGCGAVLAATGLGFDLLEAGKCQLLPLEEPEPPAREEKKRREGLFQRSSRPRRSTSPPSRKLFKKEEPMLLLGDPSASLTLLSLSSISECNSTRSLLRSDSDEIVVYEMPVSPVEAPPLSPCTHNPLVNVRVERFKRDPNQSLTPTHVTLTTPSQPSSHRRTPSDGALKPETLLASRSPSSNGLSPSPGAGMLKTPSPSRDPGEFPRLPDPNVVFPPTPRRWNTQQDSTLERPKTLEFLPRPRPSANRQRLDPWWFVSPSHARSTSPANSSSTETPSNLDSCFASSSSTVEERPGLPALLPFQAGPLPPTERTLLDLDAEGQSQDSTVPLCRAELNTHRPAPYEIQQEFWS
# assay-summary: Inhibition of MLK1 (unknown origin)
metric: pIC50
Kindly note that pIC50 refers to -log10 of the concentration in mol/L and answer with the value alone.

Query N#Cc1ccc(N2CC[C@@H](Nc3c(C(N)=O)cnc4[nH]ccc34)[C@@H](F)C2)nc1 on Mitogen-activated protein kinase kinase kinase 9 (Homo sapiens); pIC50 returned: 7.29

====

# assay-summary: Volume of distribution at steady state in Sprague-Dawley rat at 1 mg/kg, iv by LC/MS/MS method
# Type: ADME, organism-based
# reported-conditions: in vivo, read-out: Vdss
metric: Vd

Sure, the documented Vd for N#Cc1ccc(N2CC[C@@H](Nc3c(C(N)=O)cnc4[nH]ccc34)[C@@H](F)C2)nc1 is 1.1 L/kg

====

# system-under-test: Cyclin-dependent kinase 2/cyclin A (Homo sapiens)
# assay-summary: Inhibition of CDK2/CycA (unknown origin)
metric: pIC50
Kindly note that pIC50 refers to -log10 of the concentration in mol/L and answer with the value alone.

Sure, the documented pIC50 for N#Cc1ccc(N2CC[C@@H](Nc3c(C(N)=O)cnc4[nH]ccc34)[C@@H](F)C2)nc1 is 6.23

====

# system-under-test: UniProtKB P08069
# Sequence (P08069 31-736 limits assumed): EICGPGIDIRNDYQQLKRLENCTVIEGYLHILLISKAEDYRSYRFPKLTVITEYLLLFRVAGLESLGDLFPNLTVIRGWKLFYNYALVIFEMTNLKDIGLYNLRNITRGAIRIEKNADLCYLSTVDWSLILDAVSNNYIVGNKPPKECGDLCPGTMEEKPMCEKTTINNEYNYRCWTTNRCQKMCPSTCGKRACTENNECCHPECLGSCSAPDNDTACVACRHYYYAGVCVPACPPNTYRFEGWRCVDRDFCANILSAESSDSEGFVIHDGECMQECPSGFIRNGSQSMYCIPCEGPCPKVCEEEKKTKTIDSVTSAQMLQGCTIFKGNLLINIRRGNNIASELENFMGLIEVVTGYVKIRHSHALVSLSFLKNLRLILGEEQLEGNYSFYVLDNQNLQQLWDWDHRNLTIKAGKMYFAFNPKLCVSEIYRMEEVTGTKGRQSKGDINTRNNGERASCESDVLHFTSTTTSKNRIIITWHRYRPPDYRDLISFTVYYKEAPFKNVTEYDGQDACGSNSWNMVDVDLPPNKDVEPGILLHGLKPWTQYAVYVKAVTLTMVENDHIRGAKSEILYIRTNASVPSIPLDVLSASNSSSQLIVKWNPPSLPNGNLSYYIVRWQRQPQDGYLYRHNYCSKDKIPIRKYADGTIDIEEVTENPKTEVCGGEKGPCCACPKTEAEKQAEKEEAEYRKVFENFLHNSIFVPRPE
# Sequence (P08069 741-1367 limits assumed): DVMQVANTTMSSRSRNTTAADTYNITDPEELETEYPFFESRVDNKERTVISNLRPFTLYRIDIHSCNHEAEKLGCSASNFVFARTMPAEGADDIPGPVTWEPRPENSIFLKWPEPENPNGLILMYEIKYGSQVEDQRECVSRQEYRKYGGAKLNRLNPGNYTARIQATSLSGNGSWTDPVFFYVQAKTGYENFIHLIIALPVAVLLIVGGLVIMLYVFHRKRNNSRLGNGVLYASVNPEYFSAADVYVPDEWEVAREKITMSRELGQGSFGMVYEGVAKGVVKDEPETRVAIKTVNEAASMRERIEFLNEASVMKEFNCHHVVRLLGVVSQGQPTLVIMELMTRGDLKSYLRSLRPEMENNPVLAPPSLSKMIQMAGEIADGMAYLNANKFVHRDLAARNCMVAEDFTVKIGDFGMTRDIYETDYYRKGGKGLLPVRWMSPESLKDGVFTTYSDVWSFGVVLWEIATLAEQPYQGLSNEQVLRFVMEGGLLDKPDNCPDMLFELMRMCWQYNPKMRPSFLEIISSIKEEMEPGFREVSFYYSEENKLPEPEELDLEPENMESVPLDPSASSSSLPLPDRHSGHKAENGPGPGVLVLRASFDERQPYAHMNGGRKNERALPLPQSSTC
pIC50: −log10 of the molar value.
metric: pIC50

Query N#Cc1ccc(N2CC[C@@H](Nc3c(C(N)=O)cnc4[nH]ccc34)[C@@H](F)C2)nc1 on UniProtKB P08069; pIC50 returned: < 6.00

====

# system-under-test: Tyrosine-protein kinase CSK (Homo sapiens)
# Sequence (P41240 whole entry): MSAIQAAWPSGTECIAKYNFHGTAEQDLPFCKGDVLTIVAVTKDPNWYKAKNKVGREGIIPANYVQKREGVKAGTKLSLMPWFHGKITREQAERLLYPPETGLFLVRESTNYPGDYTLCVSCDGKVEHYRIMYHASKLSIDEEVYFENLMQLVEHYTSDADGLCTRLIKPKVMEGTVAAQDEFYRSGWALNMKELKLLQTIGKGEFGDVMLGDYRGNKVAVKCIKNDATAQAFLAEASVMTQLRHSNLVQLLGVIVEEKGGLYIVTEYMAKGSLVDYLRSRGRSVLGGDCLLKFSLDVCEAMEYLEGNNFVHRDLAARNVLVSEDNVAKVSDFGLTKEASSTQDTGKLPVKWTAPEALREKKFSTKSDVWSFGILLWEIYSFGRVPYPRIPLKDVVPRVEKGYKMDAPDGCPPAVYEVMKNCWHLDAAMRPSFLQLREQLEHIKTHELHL
metric: IC50

Sure, the documented IC50 for N#Cc1ccc(N2CC[C@@H](Nc3c(C(N)=O)cnc4[nH]ccc34)[C@@H](F)C2)nc1 is > 1000 nM

====

Listing of recorded pIC50 by entry.
# system-under-test: Tyrosine-protein kinase JAK1 (Homo sapiens)
# Sequence (P23458 whole entry): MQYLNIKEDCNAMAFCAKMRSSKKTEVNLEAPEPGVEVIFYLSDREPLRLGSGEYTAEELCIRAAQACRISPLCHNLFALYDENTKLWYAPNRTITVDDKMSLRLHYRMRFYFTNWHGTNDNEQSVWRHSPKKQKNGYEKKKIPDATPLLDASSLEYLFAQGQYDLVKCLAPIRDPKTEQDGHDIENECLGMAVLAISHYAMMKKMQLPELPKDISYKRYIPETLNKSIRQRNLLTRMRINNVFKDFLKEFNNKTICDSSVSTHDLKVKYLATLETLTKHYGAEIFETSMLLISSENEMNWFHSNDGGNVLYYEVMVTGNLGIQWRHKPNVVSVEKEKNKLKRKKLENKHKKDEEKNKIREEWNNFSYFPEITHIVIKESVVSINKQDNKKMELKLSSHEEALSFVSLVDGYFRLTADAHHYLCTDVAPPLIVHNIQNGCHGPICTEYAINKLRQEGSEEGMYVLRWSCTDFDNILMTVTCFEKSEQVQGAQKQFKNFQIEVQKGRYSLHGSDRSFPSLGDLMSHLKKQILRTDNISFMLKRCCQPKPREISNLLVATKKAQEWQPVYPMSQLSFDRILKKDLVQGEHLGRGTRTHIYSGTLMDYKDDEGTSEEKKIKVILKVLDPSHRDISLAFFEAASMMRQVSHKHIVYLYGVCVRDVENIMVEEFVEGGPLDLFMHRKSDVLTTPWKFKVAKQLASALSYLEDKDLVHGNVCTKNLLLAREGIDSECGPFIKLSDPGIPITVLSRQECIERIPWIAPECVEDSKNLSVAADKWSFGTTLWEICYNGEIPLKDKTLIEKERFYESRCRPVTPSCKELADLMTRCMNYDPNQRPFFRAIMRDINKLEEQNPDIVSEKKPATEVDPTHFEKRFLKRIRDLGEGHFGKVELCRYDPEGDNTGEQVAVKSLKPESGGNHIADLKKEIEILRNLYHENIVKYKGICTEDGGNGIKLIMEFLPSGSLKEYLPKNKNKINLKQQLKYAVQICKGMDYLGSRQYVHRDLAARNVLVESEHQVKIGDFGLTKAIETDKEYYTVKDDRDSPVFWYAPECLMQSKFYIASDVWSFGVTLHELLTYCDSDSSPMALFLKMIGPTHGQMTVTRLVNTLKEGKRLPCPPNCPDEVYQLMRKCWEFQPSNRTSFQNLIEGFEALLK
Kindly note that pIC50 refers to -log10 of the concentration in mol/L and answer with the value alone.

Sample answers from the record:
Sure, the documented pIC50 for NC(=O)c1ccc(N2CCC(Nc3c(C(N)=O)cnc4[nH]ccc34)CC2)nc1 is 7.24

Sure, the documented pIC50 for N#Cc1ccc(N2CC[C@@H](Nc3c(C(N)=O)cnc4[nH]ccc34)[C@@H](F)C2)nc1 is 8.39

Sure, the documented pIC50 for C[C@H]1CN(c2ccc(C#N)cn2)CC[C@H]1Nc1c(C(N)=O)cnc2[nH]ccc12 (relative stereo) is 7.96

We next turn to a different molecule, shown below.
Sure, the documented pIC50 for N#Cc1ccc(N2CCC(Nc3c(C(N)=O)cnc4[nH]ccc34)CC2)cc1 is 7.30
